- Tested on: NCI-H23 lung
- Assay explanation: NCI-60 one-dose screen, 48 h
- Details: 10 µM unless noted
The panel holds about 83,000 compounds, 20% with a hit somewhere; the sample as a whole holds those more often. The source made the active and inactive calls. The calls were made as follows: active = growth percent below 10; inactive = the rest.
Hi! Could you answer with just one of these? TRUE = active, FALSE = inactive

# input Could you please tell me the result logged for CC/C(Cc1ccccc1)=C(\c1ccc(OCCN2CCCCCC2)cc1)c1ccc(OC(=O)NCc2ccccc2)cc1 in this assay?
# output FALSE

# input Could you please tell me the result logged for O=C(Nc1ccc(F)cc1)Nc1ccccc1CNc1nc(Nc2ccc(OCCN3CCCC3)cc2)ncc1Cl in this assay?
# output FALSE

# input Could you please tell me the result logged for COc1ccc(-c2cc(C(=O)N3N=C(c4ccc(N)cc4)CC3c3ccccc3)c3ccccc3n2)cc1 (stereo not drawn) in this assay?
# output FALSE

# input Could you please tell me the result logged for CCN(CC)CCNC(=O)c1ccc(-c2nc3ccc4[nH]ncc4c3c3c2CCCC3)cc1 in this assay?
# output FALSE

# input Could you please tell me the result logged for CC[C@]12C=CCN3CC[C@@]4(c5ccc(OC)cc5N(C)[C@H]4[C@@](O)(C(=O)OC)[C@@H]1OC(=O)CCCN1CCOCC1)[C@@H]32 in this assay?
# output FALSE

# input Could you please tell me the result logged for O=C(O)C1CN(c2cccc(Cl)c2)N(c2cccc(Cl)c2)C1=O (stereo not drawn) in this assay?
# output FALSE

# input Could you please tell me the result logged for Clc1nn2c(Cn3cnc4c(NCc5ccccc5)ncnc43)nnc2c2ccccc12 in this assay?
# output FALSE

# input Could you please tell me the result logged for CS(=O)(=O)Cc1cnc(C2OCCO2)s1 in this assay?
# output FALSE

# input Could you please tell me the result logged for COC(=O)/C(CCC=C(C)C)=C1\[C@@H](OC(C)=O)C[C@@]2(C)[C@H]1CC(=O)[C@H]1[C@@]3(C)CCC(N4CCCC4)[C@@H](C)[C@@H]3CC[C@@]12C (stereo partly drawn) in this assay?
# output FALSE

# input Could you please tell me the result logged for CN(C)c1ccc(-c2cc(-c3ccc(Nc4nc(Nc5ccc(Cl)cc5)nc(Nc5ccc(Cl)cc5)n4)cc3)nc(N)c2C#N)cc1 in this assay?
# output FALSE

# input Could you please tell me the result logged for Cn1cc(-c2nonc2-c2c[nH]c3ccccc23)c2ccccc21 in this assay?
# output FALSE

# input Could you please tell me the result logged for CN(C)Cc1ccc(C(=O)Nc2ccc3ncnc(Nc4ccc(Oc5cccc(F)c5)c(Cl)c4)c3c2)cc1 in this assay?
# output FALSE

# input Could you please tell me the result logged for Cc1ccccc1CNc1c2ccccc2nc2ccccc12 in this assay?
# output FALSE

# input Could you please tell me the result logged for COc1ccc2c(c1)c(-c1cc(-c3cn(C)c4ccc(OC)cc34)on1)cn2C in this assay?
# output FALSE

# input Could you please tell me the result logged for CN1C(=O)/C(=C/c2ccc(C(=O)Nc3ncc(Cc4ccc(F)cc4)s3)cc2)SC1=S in this assay?
# output FALSE

# input Could you please tell me the result logged for O=C(/C=C/c1ccccc1)Nc1ncc(Cc2ccccc2)s1 in this assay?
# output FALSE

# input Could you please tell me the result logged for Cc1ncc(C(=O)Nc2ccc(CN3CCN(C)CC3)c(C(F)(F)F)c2)cc1C#Cc1cnc(N)c2ccncc12 in this assay?
# output TRUE

# input Could you please tell me the result logged for CN1CCN(c2ccc(NC(=O)c3cncnc3Nc3ccc4c(ccn4Cc4cccc(F)c4)c3)cc2)CC1 in this assay?
# output FALSE

# input Could you please tell me the result logged for CCN1C(=O)N(CC)C2C1NN=C1SCC(=O)N12 (stereo not drawn) in this assay?
# output FALSE

---

- System: MDA-MB-231 breast
- Assay explanation: NCI-60 one-dose screen, 48 h
- Details: 10 µM unless noted
Compounds without any hit were thinned out: in the full panel of roughly 83,000, 20% have a hit. Activity calls are given as the source filed them. Rule for the calls: active = growth percent below 10; inactive = the rest.
Hi! Could you answer with just one of these? T = active, F = inactive

# input Could you please tell me the result logged for COc1cc(C#Cc2ccc(=O)oc2C#Cc2ccccc2)cc(OC)c1OC in this assay?
# output F

# input Could you please tell me the result logged for CCc1cccc(Sc2cc(C(=O)N3Cc4ccc(OCCN(C)C)cc4C3)ccc2O)c1 in this assay?
# output F

# input Could you please tell me the result logged for CCOC(=O)/C=C/c1c(C)[nH]c(=O)[nH]c1=O in this assay?
# output F

---

Please provide measured growth for the entries that follow.
- Tested on: DU-145 prostate
- Assay explanation: NCI-60 one-dose screen, 48 h (100 = growth as untreated, 0 = no growth, -100 = all killed)
- Details: 10 µM unless noted
Compounds without any hit were thinned out: in the full panel of roughly 83,000, 20% have a hit.
Give bare numbers, in %.

Hi team, please reply with growth for each item in this list.
1. O=C1c2cc3c(cc2-c2c1c1ccc(Cl)cc1c(=O)n2C[C@H](O)CO)OCO3
2. CC(C)c1ccc(NC(=O)Nc2ccc(NC(=O)c3ccccc3N)cc2)cc1
3. Nc1n[nH]c2ccc([C@@H]3Nc4cc5[nH]ncc5cc4[C@H]4C5CCC(C5)[C@@H]34)cc12 (stereo not given in full)
4. O=C(/C=C/C12c3ccccc3C(c3ccccc31)C1C(=O)NC(=O)C12)c1ccccn1 (stereo not given)
5. COc1cc(C(=O)/C=C/c2ccc(N3CCN(C)CC3)cc2)cc(OC)c1OC
6. COc1ccc(C2CC(c3ccc4c(c3)OCO4)=Nc3c(N)ncnc3N2)cc1 (stereo not given)

# output
1: 3.78; 2: 79.2; 3: 21.2; 4: 15.3; 5: 104; 6: 141

---

- Tested on: IGROV1 ovarian
- Assay explanation: NCI-60 one-dose screen, 48 h (100 = growth as untreated, 0 = no growth, -100 = all killed)
- Details: 10 µM unless noted
This is part of a sample that, as a whole, favours compounds with a hit. Of some 83,000 tested, about 20% had one in any assay. Active and inactive are the calls of the source. Rule for the calls: active = growth percent below 10; inactive = the rest.
Experimental readout: growth

Example compounds with recorded growth:
Compound	Measured on	Result
COc1cc2nc(Nc3cccc(F)c3)nc(Nc3cc(C)[nH]n3)c2cc1OC	IGROV1 ovarian	-96.1% [20 µM] (active)
COc1cc(/C=C/c2cc(/C=C/c3ccc(O)c(OC)c3)n(C(=O)Nc3ccc(F)cc3)n2)ccc1O	IGROV1 ovarian	17.4% (inactive)
O=C(CCCCCCN1CC(=O)N2[C@@H](c3ccc(Cl)cc3)c3[nH]c4ccccc4c3C[C@H]2C1=O)NO	IGROV1 ovarian	53.8% (inactive)
C/C(C=O)=C\c1ccc2c(c1)OCO2	IGROV1 ovarian	116% (inactive)
COc1cccc2c(N=NC(=O)c3ccc(S(N)(=O)=O)cc3)c(O)[nH]c12	IGROV1 ovarian	101% (inactive)
CCOC(=O)n1cc(-c2nonc2-c2cn(C)c3ccccc23)c2ccccc21	IGROV1 ovarian	46.8% (inactive)
CC(C(=O)O)n1c(O)c(C=Nc2cccnc2)sc1=S (stereo not given)	IGROV1 ovarian	84.2% (inactive)
Nc1c(C(=O)Nc2ccncc2)sc2nc3c(cc12)CCCCC3	IGROV1 ovarian	98.9% (inactive)
N#Cc1c(N2CCOCC2)nc(=S)[nH]c1-c1ccccc1	IGROV1 ovarian	29.1% (inactive)

Here's the next entry for you.
# input Please list growth recorded for the compound O=C1Nc2ccc(F)cc2/C1=C\c1nc(-c2ccccc2F)n2ccccc12
# output 75.5% (inactive)

---

- Tested on: SF-539 CNS
- Assay explanation: NCI-60 one-dose screen, 48 h (100 = growth as untreated, 0 = no growth, -100 = all killed)
- Details: 10 µM unless noted
The panel holds about 83,000 compounds, 20% with a hit somewhere; the sample as a whole holds those more often. Active and inactive are the calls of the source. How the source made its calls: active means growth percent below 10; inactive means the rest.
Experimental readout: growth

Example molecules with recorded growth:
Molecule	growth
COc1cccc(/C=C/C(=O)c2cc3c(N)c(C(=O)Nc4ccccc4C)sc3nc2C)c1	50.9% (inactive)
O=C1CCCc2nc3sc4c(=O)n(-c5ccccc5Cl)nnc4c3cc21	103% (inactive)
O=C1/C(=C/c2ccc(C(F)(F)F)cc2)COc2ccc(O)cc21	86.7% (inactive)
Cc1ccc2[nH]c(=O)c3c(c2c1)OC(N)=C(C#N)C31C(=O)c2cccc3cccc1c23 (stereo not given)	95.9% (inactive)
CS(=O)(=O)Nc1cc(-c2ccc3ncnc(Nc4ccc5c(cnn5Cc5cccnc5)c4)c3c2)cnc1Cl	41.4% (inactive)

Hi team, please reply with growth for each item in this list.
1. Clc1ccc(-c2nc(-c3c[nH]c4ncccc34)cs2)cc1
2. O=C(Nc1ccccc1)c1sc(-c2ccccc2)cc1O
3. COc1cc(-c2nc(SCCC(C)C)nc(N3CCOCC3)c2C#N)cc(OC)c1OC
4. CC(C)c1ccc(NC(=O)Nc2ccc(NC(=O)c3ccccc3N)cc2)cc1
5. CCOC(=O)C1=C(c2ccccc2)N=c2s/c(=C/c3ccc(Br)cc3)c(=O)n2C1c1ccc(O)cc1 (stereo not given)
6. COc1ccc(Nc2ncccc2NC(=O)c2cn(Cc3cccc(Oc4ccccc4)c3)nn2)cc1OC

# output
1. 20.6% [100 µM] (inactive)
2. 90.8% (inactive)
3. 55.5% (inactive)
4. 30.1% (inactive)
5. 97.9% (inactive)
6. 95% (inactive)
